These data points were gathered from patent US20230233569A1.

- assayedSystem: KRAS G12D (Homo sapiens, UniProt P01116+P62937, G12D)
- Sequence (P01116 1-169 isoform P01116-2 G12D limits assumed): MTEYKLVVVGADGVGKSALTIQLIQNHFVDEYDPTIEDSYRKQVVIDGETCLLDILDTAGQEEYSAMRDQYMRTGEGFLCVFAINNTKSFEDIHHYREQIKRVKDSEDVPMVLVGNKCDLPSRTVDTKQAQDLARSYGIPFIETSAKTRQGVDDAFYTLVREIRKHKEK
- Sequence (P62937 whole entry): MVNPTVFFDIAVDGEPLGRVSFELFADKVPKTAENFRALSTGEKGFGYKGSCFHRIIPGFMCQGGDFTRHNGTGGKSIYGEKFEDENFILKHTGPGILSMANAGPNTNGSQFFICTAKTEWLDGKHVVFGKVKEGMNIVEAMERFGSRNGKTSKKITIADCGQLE
- assayText: Disruption of BRAF RBD interaction with Ras (FRET / MOA assay, with Cyclophilin A)
- Type: biochemical
- conditionContext: read-out: KRAS G12D FRET data, IC50
parameter: IC50

Input: Missing value: IC50, KRAS G12D (Homo sapiens, UniProt P01116+P62937, G12D), entry CCn1c(-c2cc(N3CCN(C)CC3)cnc2[C@H](C)OC)c2c3cc(ccc31)-c1cccc(c1)C[C@H](NC(=O)[C@H](C(C)C)N(C)C(=O)[C@@H]1OCC[C@@H]1c1ccccc1)C(=O)N1CCC[C@H](N1)C(=O)OCC(C)(C)C2 (atropisomer, axis not shown) . Fill in?
Output: 100 to 1000 nM

###

In this section, each of the molecules is paired with its reported pIC50.
- assayedSystem: NRAS G12C (Homo sapiens, UniProt P01111+P62937, G12C)
- Sequence (P01111 whole entry G12C): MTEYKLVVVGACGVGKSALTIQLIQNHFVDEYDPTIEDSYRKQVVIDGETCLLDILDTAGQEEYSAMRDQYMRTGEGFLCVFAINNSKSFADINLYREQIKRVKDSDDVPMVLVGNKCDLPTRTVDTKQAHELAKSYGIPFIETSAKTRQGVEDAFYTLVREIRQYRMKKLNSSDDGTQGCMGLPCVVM
- Sequence (P62937 whole entry): as the sequence (P62937 whole entry) above
- assayText: Disruption of BRAF RBD interaction with Ras (FRET / MOA assay, with Cyclophilin A)
- Type: biochemical
- conditionContext: NRAS G12C; read-out: NRAS G12C FRET data IC50
pIC50: −log10 of the molar value.

The cases that follow already have their pIC50 on record.
# molecule, pIC50
measured = [
    ("CCN(C(=O)N(C)[C@H](C(=O)N[C@H]1Cc2nc(cs2)-c2ccc3c(c2)c(c(-c2cccnc2[C@H](C)OC)n3CC)CC(C)(C)COC(=O)[C@@H]2CCCN(N2)C1=O)C(C)C)C(C)C", "7.00 to 8.00"),
    ("CCn1c(-c2cccnc2[C@H](C)OC)c2c3cc(ccc31)-c1csc(n1)C[C@H](NC(=O)[C@H](C(C)C)N(C)C(=O)[C@@H]1CCN(C)[C@@H]1c1ccccc1)C(=O)N1CCC[C@H](N1)C(=O)OCC(C)(C)C2", "5.00 to 6.00"),
    ("CCn1c(-c2cccnc2[C@H](C)OC)c2c3cc(ccc31)-c1cc(O)cc(c1)C[C@H](NC(=O)[C@H](C(C)C)N(C)C(=O)[C@@H]1CNC[C@@H]1C)C(=O)N1CCC[C@H](N1)C(=O)OCC(C)(C)C2", "7.00 to 8.00"),
]

Input: Quick check: pIC50 of CCn1c(-c2cccnc2[C@H](C)OC)c2c3cc(ccc31)-c1csc(n1)C[C@H](NC(=O)[C@H]1CCO1)C(=O)N1CCC[C@H](N1)C(=O)OCC(C)(C)C2 ?
Output: 6.00 to 7.00

Input: Quick check: pIC50 of CCn1c(-c2cccnc2[C@H](C)OC)c2c3cc(ccc31)-c1csc(n1)C[C@H](NC(=O)[C@@H](F)COC1CN(C(=O)C#CC(C)(C)N(C)C)C1)C(=O)N1CCCC(N1)C(=O)OCC(C)(C)C2 (stereo partly drawn) ?
Output: > 8.00

Input: Quick check: pIC50 of CCn1c(-c2cccnc2[C@H](C)OC)c2c3cc(ccc31)-c1cc(O)cc(c1)C[C@H](NC(=O)[C@H](C(C)C)N(C)C(=O)[C@H]1CCN(C)C1)C(=O)N1CCC[C@H](N1)C(=O)OCC(C)(C)C2 ?
Output: 7.00 to 8.00

Input: Quick check: pIC50 of CCn1c(-c2cccnc2[C@H](C)OC)c2c3cc(ccc31)-c1cc(O)cc(c1)C[C@H](NC(=O)[C@H](C(C)C)N(C)C(=O)C1CCc3ccccc3N1)C(=O)N1CCC[C@H](N1)C(=O)OCC(C)(C)C2 (stereo partly drawn) ?
Output: 6.00 to 7.00

Input: Quick check: pIC50 of CCn1c(-c2cnccc2COC)c2c3cc(ccc31)-c1cc(O)cc(c1)C[C@H](NC(=O)[C@H](C(C)C)N(C)C(=O)[C@@H]1CN(C(C)=O)C[C@@H]1C(F)(F)F)C(=O)N1CCC[C@H](N1)C(=O)OCC(C)(C)C2 ?
Output: 6.00 to 7.00

Input: Quick check: pIC50 of C=CC(=O)N1CC[C@H](C(=O)N(C)[C@H](C(=O)N[C@H]2Cc3nsc(n3)-c3ccc4c(c3)c(c(-c3cccnc3[C@H](C)OC)n4CC)CC(C)(C)COC(=O)[C@@H]3CCCN(N3)C2=O)C(C)C)C1 (atropisomer, axis not shown) ?
Output: 6.00 to 7.00

###

- assayedSystem: NRAS G12C (Homo sapiens, UniProt P01111+P62937, G12C)
- assayText: Disruption of BRAF RBD interaction with Ras (FRET / MOA assay, with Cyclophilin A)
- Type: biochemical
- conditionContext: NRAS G12C; read-out: NRAS G12C FRET data IC50
pIC50: −log10 of the molar value.
parameter: pIC50

The cases that follow already have their pIC50 on record.
# molecule, assayedSystem, pIC50
data = [
    ("CCn1c(-c2cccnc2COC)c2c3cc(ccc31)-c1cc(O)cc(c1)C[C@H](NC(=O)[C@H](C(C)C)N(C)C(=O)[C@H]1CCNC1)C(=O)N1CCC[C@H](N1)C(=O)OCC(C)(C)C2", "NRAS G12C (Homo sapiens, UniProt P01111+P62937, G12C)", "6.00 to 7.00"),
    ("CCn1c(-c2cccnc2[C@H](C)OC)c2c3cc(ccc31)-c1csc(n1)C[C@H](NC(=O)[C@H](C(C)C)N(C)C(=O)N1CC3(CC(N4CCOCC4)C3)C1)C(=O)N1CCC[C@H](N1)C(=O)OCC(C)(C)C2 (atropisomer, axis not shown)", "NRAS G12C (Homo sapiens, UniProt P01111+P62937, G12C)", "6.00 to 7.00"),
    ("C=CC(=O)N1C[C@@H](C(=O)N(C)[C@H](C(=O)N[C@H]2Cc3cccc(c3)-c3ccc4c(c3)c(c(-c3cccnc3[C@H](C)OC)n4CC)CC(C)(C)COC(=O)[C@@H]3CCCN(N3)C2=O)C(C)C)[C@@H](C(F)(F)F)C1", "NRAS G12C (Homo sapiens, UniProt P01111+P62937, G12C)", "5.00 to 6.00"),
]

API: the following record is the query input.
Input: Quick check: pIC50 of CCn1c(-c2cccnc2[C@H](C)OC)c2c3cc(ccc31)-c1cc(O)cc(c1)C[C@H](NC(=O)[C@H](C(C)C)N(C)C(=O)C1COC1)C(=O)N1CCC[C@H](N1)C(=O)OCC(C)(C)C2 ?
Output: 6.00 to 7.00

###

In this section, each of the molecules is paired with its reported pIC50.
- assayedSystem: KRAS G12V (Homo sapiens, UniProt P01116+P62937, G12V)
- Sequence (P01116 1-169 isoform P01116-2 G12V limits assumed): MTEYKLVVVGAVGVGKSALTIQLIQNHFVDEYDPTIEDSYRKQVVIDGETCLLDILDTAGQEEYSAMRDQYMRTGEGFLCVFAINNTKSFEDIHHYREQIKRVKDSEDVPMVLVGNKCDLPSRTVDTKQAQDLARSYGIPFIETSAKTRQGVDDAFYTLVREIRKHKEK
- Sequence (P62937 whole entry): as the sequence (P62937 whole entry) above
- assayText: Disruption of BRAF RBD interaction with Ras (FRET / MOA assay, with Cyclophilin A)
- Format: biochemical
- conditionContext: KRAS G12V; read-out: KRAS G12V FRET data IC50
pIC50: −log10 of the molar value.

The cases that follow already have their pIC50 on record.
# molecule, pIC50
records = [
    ("C=CC(=O)N1CC[C@H](C(=O)N(C)[C@H](C(=O)N[C@H]2Cc3cc(O)cc(c3)-c3ccc4c(c3)c(c(-c3ccccc3CN(C)C)n4CC)CC(C)(C)COC(=O)[C@@H]3CCCN(N3)C2=O)C(C)C)C1 [Example A005]", "6.00 to 7.00"),
    ("CCn1c(-c2cccnc2[C@H](C)OC)c2c3cc(ccc31)-c1cc(O)cc(c1)C[C@H](NC(=O)[C@H](C(C)C)N(C)C(=O)[C@@H]1CCN[C@@H]1c1ccccc1)C(=O)N1CCC[C@H](N1)C(=O)OCC(C)(C)C2 (atropisomer, axis not shown) [Example A605]", "7.00 to 8.00"),
    ("CCn1c(-c2cccnc2[C@H](C)OC)c2c3cc(ccc31)-c1csc(n1)C[C@H](NC(=O)[C@H](C(C)C)N(C)C(=O)N1CC3(CC(N(C)CCO)C3)C1)C(=O)N1CCC[C@H](N1)C(=O)OCC(C)(C)C2 (atropisomer, axis not shown) [Example A467]", "6.00 to 7.00"),
    ("CCn1c(-c2cccnc2[C@H](C)OC)c2c3cc(ccc31)-c1cc(O)cc(c1)C[C@H](NC(=O)[C@H](C(C)C)N(C)C(=O)[C@@H]1OCC[C@@H]1c1cccnc1)C(=O)N1CCC[C@H](N1)C(=O)OCC(C)(C)C2 (atropisomer, axis not shown) [Example A546]", "7.00 to 8.00"),
]

Input: Missing value: pIC50, KRAS G12V (Homo sapiens, UniProt P01116+P62937, G12V), entry CCn1c(-c2cccnc2[C@H](C)OC)c2c3cc(ccc31)-c1csc(n1)C[C@H](NC(=O)[C@H](CC1CC1)N(C)C(=O)N1CC(OC)C1)C(=O)N1CCC[C@H](N1)C(=O)OCC(C)(C)C2 (atropisomer, axis not shown) [Example A578] . Fill in?
Output: 7.00 to 8.00

Input: Missing value: pIC50, KRAS G12V (Homo sapiens, UniProt P01116+P62937, G12V), entry CCn1c(-c2cccnc2[C@H](C)OC)c2c3cc(ccc31)-c1csc(n1)C[C@H](NC(=O)[C@H](C(C)C)N(C)C(=O)N1CCC13CCN(C)CC3)C(=O)N1CCC[C@H](N1)C(=O)OCC(C)(C)C2 [Example A273] . Fill in?
Output: 6.00 to 7.00

Input: Missing value: pIC50, KRAS G12V (Homo sapiens, UniProt P01116+P62937, G12V), entry CCn1c(-c2cccnc2[C@H](C)OC)c2c3cc(ccc31)-c1csc(n1)C[C@H](NC(=O)[C@H](C(C)C)N(C)C(=O)N1CC(C3CN(C)C3)C1)C(=O)N1CCC[C@H](N1)C(=O)OCC(C)(C)C2 (atropisomer, axis not shown) [Example A608] . Fill in?
Output: 6.00 to 7.00

Input: Missing value: pIC50, KRAS G12V (Homo sapiens, UniProt P01116+P62937, G12V), entry CCn1c(-c2cnccc2COC)c2c3cc(ccc31)-c1cc(O)cc(c1)C[C@H](NC(=O)[C@H](C(C)C)N(C)C(=O)[C@@H]1CN(C(C)=O)C[C@@H]1C(F)(F)F)C(=O)N1CCC[C@H](N1)C(=O)OCC(C)(C)C2 [Example A80] . Fill in?
Output: 5.00 to 6.00
